molecular target: Metabotropic glutamate receptor 2 (Homo sapiens, UniProt Q14416); test: Positive allosteric modulation of mGluR2 (unknown origin) by FLIPR assay
Sequence (Q14416 whole entry): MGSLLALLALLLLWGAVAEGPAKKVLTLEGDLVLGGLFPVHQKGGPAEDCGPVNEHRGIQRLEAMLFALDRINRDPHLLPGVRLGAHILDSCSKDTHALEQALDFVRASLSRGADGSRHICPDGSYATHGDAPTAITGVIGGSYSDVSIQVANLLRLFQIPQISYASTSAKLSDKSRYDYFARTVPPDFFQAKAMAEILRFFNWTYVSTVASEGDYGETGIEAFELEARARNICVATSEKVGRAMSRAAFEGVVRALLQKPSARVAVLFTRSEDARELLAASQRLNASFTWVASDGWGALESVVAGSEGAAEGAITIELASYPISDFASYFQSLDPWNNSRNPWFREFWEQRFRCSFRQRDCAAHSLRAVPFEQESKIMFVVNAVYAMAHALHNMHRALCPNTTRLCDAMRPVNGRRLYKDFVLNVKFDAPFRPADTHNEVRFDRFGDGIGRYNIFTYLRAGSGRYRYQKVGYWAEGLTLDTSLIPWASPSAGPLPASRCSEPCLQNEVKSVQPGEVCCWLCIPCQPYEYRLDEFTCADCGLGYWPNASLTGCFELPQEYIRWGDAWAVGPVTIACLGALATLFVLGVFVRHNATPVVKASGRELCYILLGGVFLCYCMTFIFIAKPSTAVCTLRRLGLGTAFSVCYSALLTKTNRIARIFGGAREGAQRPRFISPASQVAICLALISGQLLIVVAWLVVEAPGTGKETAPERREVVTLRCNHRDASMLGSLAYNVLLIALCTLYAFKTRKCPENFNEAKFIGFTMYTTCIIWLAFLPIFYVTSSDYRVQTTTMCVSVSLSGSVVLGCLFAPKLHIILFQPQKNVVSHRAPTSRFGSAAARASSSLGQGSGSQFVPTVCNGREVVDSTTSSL
endpoint-label: pEC50
Please report pEC50 as the negative decimal logarithm of the molar concentration, giving only the number.

q: Consider the molecule shown here: `CCCn1ccc2c(NCCc3ccccc3)cccc2c1=O` What is its recorded pEC50?
a: 6.80

---

So I've got a bunch of compounds here, and I need their Emax values.
target: Metabotropic glutamate receptor 2 (Homo sapiens, UniProt Q14416); assay: Positive allosteric modulation of human mGluR2 expressed in CHO cells assessed as incorporation of [35S]GTPgammaS at 0.3 nM to 50 uM after 30 mins by scintillation counting analysis relative to control; format: functional, cell-based
Sequence (Q14416 19-872 limits assumed): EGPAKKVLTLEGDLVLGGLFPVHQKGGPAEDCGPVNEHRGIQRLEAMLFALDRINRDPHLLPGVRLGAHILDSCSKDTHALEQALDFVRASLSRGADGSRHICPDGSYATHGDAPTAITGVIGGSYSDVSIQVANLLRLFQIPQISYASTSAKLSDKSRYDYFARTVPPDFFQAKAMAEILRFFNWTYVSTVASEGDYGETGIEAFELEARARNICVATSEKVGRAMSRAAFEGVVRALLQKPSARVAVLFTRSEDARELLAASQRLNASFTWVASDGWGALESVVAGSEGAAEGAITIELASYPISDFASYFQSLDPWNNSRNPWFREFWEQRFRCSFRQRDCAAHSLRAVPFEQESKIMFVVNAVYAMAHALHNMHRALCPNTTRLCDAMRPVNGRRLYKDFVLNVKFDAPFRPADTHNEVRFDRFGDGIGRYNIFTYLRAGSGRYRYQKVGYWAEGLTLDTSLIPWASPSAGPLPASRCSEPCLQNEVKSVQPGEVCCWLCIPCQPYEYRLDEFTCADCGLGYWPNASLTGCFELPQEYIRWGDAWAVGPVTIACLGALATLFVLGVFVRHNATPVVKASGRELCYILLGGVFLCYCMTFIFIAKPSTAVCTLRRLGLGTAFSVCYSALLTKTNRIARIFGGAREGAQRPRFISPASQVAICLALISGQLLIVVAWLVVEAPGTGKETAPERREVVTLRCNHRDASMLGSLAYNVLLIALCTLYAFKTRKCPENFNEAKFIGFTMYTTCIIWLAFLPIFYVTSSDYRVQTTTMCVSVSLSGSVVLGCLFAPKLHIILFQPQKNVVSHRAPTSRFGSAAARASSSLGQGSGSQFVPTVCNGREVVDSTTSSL
All answers are understood in %, so give the number only.

q: Query for Metabotropic glutamate receptor 2 (Homo sapiens, UniProt Q14416): what Emax does the record show for `CCCn1ccc2c(N(C)CCc3ccc(OC)cc3)cccc2c1=O` ?
a: 93

q: Also `CCCn1ccc2c(NCCc3ccc(C)cc3)cccc2c1=O` , if possible.
a: 134

q: // same read-out, input: `CCCn1ccc2c(NCc3cccc(Oc4ccccc4)c3)cccc2c1=O`
a: 65

q: Same question for `CCCn1ccc2c(NCc3cccc(OC)c3)cccc2c1=O` please.
a: 129

q: # repeat for `CCCn1ccc2c(NCc3ccccc3Cl)cccc2c1=O`
a: 163

q: Field entry: `CCCn1ccc2c(NCCc3cccc(OC)c3)cccc2c1=O`
a: 110

q: And the next one, `CCCn1ccc2c(NCCCc3ccccc3)cccc2c1=O` ?
a: 112

q: Also, `CCCn1ccc2c(OCCc3ccc(OC)cc3)cccc2c1=O` please.
a: 123

q: Further, for `CCCn1ccc2c(NCc3cccc(OC(F)(F)F)c3)cccc2c1=O` ?
a: 162

---

Hi there, I'd appreciate the recorded Emax for every entry that follows.
biological target: UniProt:Q14416; test: Positive allosteric modulation of human mGluR2 expressed in CHO cells assessed as incorporation of [35S]GTPgammaS at 0.3 nM to 50 uM after 30 mins by scintillation counting analysis relative to control; type: functional, cell-based
Your answer is read as %, so omit the unit and give the number.

q: Report Emax for `CCCn1ccc2c(NCCc3ccc(OC)cc3)cccc2c1=O` please.
a: 92

q: Item: `CCCn1ccc2c(NCCc3ccccc3OC)cccc2c1=O`
a: 137

q: Similarly, `CCCn1ccc2c(NCCc3ccccc3)ccc(Cl)c2c1=O` ?
a: 68
